- TEST_METHOD_NOTES: Half life in rat at 1 to 3 mg/kg, iv
- Type: ADME, organism-based
- Parameters: dose 1-3 mg/kg, route intravenous
- REPORTED_CONDITIONS: in vivo
PROPERTY: half-life (h)

[I] CC1(C)Oc2ncnc(N)c2N=C1c1ccc([C@H]2CC[C@H](CC(=O)O)CC2)cc1
[II] CC1(C)Oc2ncnc(N)c2N=C1c1ccc(C23CCC(CC(=O)O)(CC2)CC3)cc1
Q) Lab note: check whether I or II has the lower measured half-life. Please indicate the selected item by its label.
A) I
(I: 3 h, II: 7 h)
